test-context: in ethylene glycol, 283.15 K
measurement-name: solubility (mole fraction)
Returns: the value as a bare number; no unit string appended.

stdin: Given the entry `N#CNC(=N)N` , report its measured solubility (mole fraction).
stdout: 0.0245

====

test-context: in DMF, 298.15 K
measurement-name: solubility (mole fraction)
// return just the number, without any unit appended

stdin: What value of solubility (mole fraction) has been reported for the following compound? `N#CNC(=N)N`
stdout: 0.225

====

test-context: in ethanol, 283.15 K
measurement-name: solubility (mole fraction)
Output spec: single numeric token, no unit.

stdin: Consider the compound `N#CNC(=N)N` and give its measured solubility (mole fraction).
stdout: 0.00403

====

test-context: in ethanol, 298.15 K
measurement-name: solubility (mole fraction)
Lab note: jot down the number only; don't add units.

stdin: What solubility (mole fraction) value was documented for this compound, `N#CNC(=N)N` ?
stdout: 0.00591

====

test-context: in water, 298.15 K
measurement-name: solubility (mole fraction)
# output: bare number, no unit

stdin: Value lookup for solubility (mole fraction); key = `N#CNC(=N)N`
stdout: 0.00891

====

test-context: in acetone, 308.15 K
measurement-name: solubility (mole fraction)
Just the number, please, no unit after it.

stdin: Sample `N#CNC(=N)N` — what was its solubility (mole fraction)?
stdout: 0.0127

====

test-context: in acetone, 293.15 K
measurement-name: solubility (mole fraction)
Reply: number alone, nothing else.

stdin: What does the data say about its solubility (mole fraction)? Entry: `N#CNC(=N)N`
stdout: 0.0101

====

test-context: in acetone, 323.15 K
measurement-name: solubility (mole fraction)
A bare number is all that is needed in reply.

stdin: Sample `N#CNC(=N)N` — what was its solubility (mole fraction)?
stdout: 0.015

====

test-context: in acetone, 298.15 K
measurement-name: solubility (mole fraction)

stdin: GET /values?readout=solubility (mole fraction)&item= `N#CNC(=N)N`
stdout: 0.011

====

test-context: in ethylene glycol, 303.15 K
measurement-name: solubility (mole fraction)

stdin: For `N#CNC(=N)N` , what is its reported solubility (mole fraction)?
stdout: 0.0587

====

test-context: in ethylene glycol, 313.15 K
measurement-name: solubility (mole fraction)
Lab note: write the figure by itself, no unit.

stdin: Consider the compound `N#CNC(=N)N` and give its measured solubility (mole fraction).
stdout: 0.0805

====

test-context: in ethanol, 318.15 K
measurement-name: solubility (mole fraction)

stdin: May I ask what solubility (mole fraction) has been recorded for `N#CNC(=N)N` ?
stdout: 0.00883

====

test-context: in acetone, 318.15 K
measurement-name: solubility (mole fraction)
Lab note: write the figure by itself, no unit.

stdin: Entry `N#CNC(=N)N` has what solubility (mole fraction)?
stdout: 0.0144

====

test-context: in DMF, 313.15 K
measurement-name: solubility (mole fraction)
No unit in the answer, please; the number alone is enough.

stdin: Could you share which solubility (mole fraction) value was measured for `N#CNC(=N)N` ?
stdout: 0.256

====

test-context: in water, 288.15 K
measurement-name: solubility (mole fraction)
Simply state the number, no unit and no words.

stdin: Bench note: what solubility (mole fraction) did `N#CNC(=N)N` show?
stdout: 0.00526

====

test-context: in ethylene glycol, 308.15 K
measurement-name: solubility (mole fraction)
Enter a number only.

stdin: So what does the record say about solubility (mole fraction) for `N#CNC(=N)N` ?
stdout: 0.0655
